- Tested on: melon (Cucumis melo) fruit acid form alpha-galactosidase
- Test method notes: Substrate kinetics (Lineweaver-Burk) of acid alpha-galactosidase
- Assay type: biochemical, muskmelon (Cucumis melo L. cv C-8)
- Measurement setup: Lineweaver-Burk
Assay metric: Vmax (μmol mg^−1 protein min^−1)

Some compounds with known Vmax results, for comparison:
{"Compound": "OC[C@H]1O[C@H](OC[C@H]2O[C@H](OC[C@H]3O[C@H](O[C@]4(CO)O[C@H](CO)[C@@H](O)[C@@H]4O)[C@H](O)[C@@H](O)[C@@H]3O)[C@H](O)[C@@H](O)[C@H]2O)[C@H](O)[C@@H](O)[C@H]1O", "System name": "melon (Cucumis melo) fruit acid form alpha-galactosidase", "Assay metric": "Vmax", "Units text": "μmol mg^−1 protein min^−1", "Assay value": 0.23}
{"Compound": "O=[N+]([O-])c1ccc(O[C@H]2O[C@H](CO)[C@H](O)[C@H](O)[C@H]2O)cc1 [pNPG, p-nitrophenyl alpha-galactopyranoside]", "System name": "melon (Cucumis melo) fruit acid form alpha-galactosidase", "Assay metric": "Vmax", "Units text": "μmol mg^−1 protein min^−1", "Assay value": 1.5}

A. OC[C@H]1O[C@H](OC[C@H]2OC(O)[C@H](O)[C@@H](O)[C@@H]2O)[C@H](O)[C@@H](O)[C@H]1O (stereo partly shown)
B. OC[C@H]1O[C@H](OC[C@H]2O[C@H](O[C@]3(CO)O[C@H](CO)[C@@H](O)[C@@H]3O)[C@H](O)[C@@H](O)[C@@H]2O)[C@H](O)[C@@H](O)[C@H]1O
stdin: Of A and B , which one carries the higher reported Vmax? # answer = label of selected item
stdout: B

###

- System name: melon (Cucumis melo) fruit alkaline alpha-galactosidase Form I (Cucumis melo)
- Sequence (Q84NI7 1-754): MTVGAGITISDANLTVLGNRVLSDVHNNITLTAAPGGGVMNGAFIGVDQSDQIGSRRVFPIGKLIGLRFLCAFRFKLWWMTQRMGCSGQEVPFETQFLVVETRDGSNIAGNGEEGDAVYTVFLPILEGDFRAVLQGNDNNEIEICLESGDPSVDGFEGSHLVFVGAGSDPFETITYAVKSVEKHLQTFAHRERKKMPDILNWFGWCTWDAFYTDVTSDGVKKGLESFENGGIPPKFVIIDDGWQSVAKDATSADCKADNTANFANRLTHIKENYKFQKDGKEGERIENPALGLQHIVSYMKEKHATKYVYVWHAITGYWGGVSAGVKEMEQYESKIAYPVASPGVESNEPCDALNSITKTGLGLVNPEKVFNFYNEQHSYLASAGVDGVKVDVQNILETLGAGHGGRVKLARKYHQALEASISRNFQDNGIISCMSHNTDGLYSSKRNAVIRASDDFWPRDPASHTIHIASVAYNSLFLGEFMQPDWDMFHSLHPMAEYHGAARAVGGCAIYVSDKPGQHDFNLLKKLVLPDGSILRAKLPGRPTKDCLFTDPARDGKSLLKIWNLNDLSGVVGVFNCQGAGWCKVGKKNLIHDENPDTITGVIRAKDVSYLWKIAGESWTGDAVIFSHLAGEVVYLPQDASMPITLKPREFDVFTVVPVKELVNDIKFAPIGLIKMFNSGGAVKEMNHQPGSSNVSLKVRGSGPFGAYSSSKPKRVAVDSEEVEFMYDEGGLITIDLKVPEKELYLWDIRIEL
- Test method notes: Substrate kinetics (Lineweaver-Burk) of alkaline alpha-galactosidase Form I
- Measurement setup: Lineweaver-Burk
Assay metric: Vmax (μmol mg^−1 protein min^−1)

{"Molecule": "O=[N+]([O-])c1ccc(O[C@H]2O[C@H](CO)[C@H](O)[C@H](O)[C@H]2O)cc1 [pNPG, p-nitrophenyl alpha-galactopyranoside]", "System name": "melon (Cucumis melo) fruit alkaline alpha-galactosidase Form I (Cucumis melo)", "Vmax (μmol mg^−1 protein min^−1)": 1.4}

a. OC[C@H]1O[C@H](OC[C@H]2OC(O)[C@H](O)[C@@H](O)[C@@H]2O)[C@H](O)[C@@H](O)[C@H]1O (stereo partly shown)
b. OC[C@H]1O[C@H](OC[C@H]2O[C@H](O[C@]3(CO)O[C@H](CO)[C@@H](O)[C@@H]3O)[C@H](O)[C@@H](O)[C@@H]2O)[C@H](O)[C@@H](O)[C@H]1O
stdin: Would you let me know which has the greater Vmax value, a or b ? Give the label under which the chosen entry appears.
stdout: b
(b: 0.56 μmol mg^−1 protein min^−1, a: 0.3 μmol mg^−1 protein min^−1)

###

- Tested on: melon (Cucumis melo) fruit acid form alpha-galactosidase
- Test method notes: Substrate kinetics (Lineweaver-Burk) of acid alpha-galactosidase
- Type: biochemical, muskmelon (Cucumis melo L. cv C-8)
Assay metric: Vmax/Km ratio

{"Compound": "O=[N+]([O-])c1ccc(O[C@H]2O[C@H](CO)[C@H](O)[C@H](O)[C@H]2O)cc1 [pNPG, p-nitrophenyl alpha-galactopyranoside]", "System name": "melon (Cucumis melo) fruit acid form alpha-galactosidase", "Vmax/Km ratio": 5.00}

I. OC[C@H]1O[C@H](OC[C@H]2OC(O)[C@H](O)[C@@H](O)[C@@H]2O)[C@H](O)[C@@H](O)[C@H]1O (stereo partly shown)
II. OC[C@H]1O[C@H](OC[C@H]2O[C@H](O[C@]3(CO)O[C@H](CO)[C@@H](O)[C@@H]3O)[C@H](O)[C@@H](O)[C@@H]2O)[C@H](O)[C@@H](O)[C@H]1O
III. OC[C@H]1O[C@H](OC[C@H]2O[C@H](OC[C@H]3O[C@H](O[C@]4(CO)O[C@H](CO)[C@@H](O)[C@@H]4O)[C@H](O)[C@@H](O)[C@@H]3O)[C@H](O)[C@@H](O)[C@H]2O)[C@H](O)[C@@H](O)[C@H]1O
stdin: Exam item: list the entries in increasing order of Vmax/Km ratio. Response format: the labels, sorted as the prompt asks.
stdout: III, II, I
(III: 0.02, II: 0.17, I: 0.27)

###

- System name: melon (Cucumis melo) fruit alkaline alpha-galactosidase Form II (Cucumis melo, UniProt Q84NI6)
- Sequence (Q84NI6 1-772): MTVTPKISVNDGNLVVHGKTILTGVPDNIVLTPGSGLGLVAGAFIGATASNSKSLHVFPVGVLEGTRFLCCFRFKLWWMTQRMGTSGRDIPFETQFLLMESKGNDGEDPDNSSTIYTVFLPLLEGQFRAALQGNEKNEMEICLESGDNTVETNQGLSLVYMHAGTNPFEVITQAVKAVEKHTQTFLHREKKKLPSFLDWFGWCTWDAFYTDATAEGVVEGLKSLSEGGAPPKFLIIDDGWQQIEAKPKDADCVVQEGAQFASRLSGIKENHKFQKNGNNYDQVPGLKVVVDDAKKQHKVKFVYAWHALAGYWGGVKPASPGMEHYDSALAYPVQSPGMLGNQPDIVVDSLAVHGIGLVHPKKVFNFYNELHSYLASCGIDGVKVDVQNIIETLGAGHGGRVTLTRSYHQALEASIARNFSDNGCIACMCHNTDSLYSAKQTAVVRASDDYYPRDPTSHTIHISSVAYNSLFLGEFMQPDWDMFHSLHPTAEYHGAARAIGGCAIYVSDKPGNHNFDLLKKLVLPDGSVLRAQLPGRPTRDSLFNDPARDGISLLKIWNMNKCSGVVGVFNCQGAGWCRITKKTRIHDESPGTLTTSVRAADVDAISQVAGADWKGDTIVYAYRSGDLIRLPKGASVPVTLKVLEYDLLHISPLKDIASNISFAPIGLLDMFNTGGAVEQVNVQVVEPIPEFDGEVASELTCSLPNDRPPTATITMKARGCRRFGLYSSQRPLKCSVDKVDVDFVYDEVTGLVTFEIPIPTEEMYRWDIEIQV
Assay metric: pKi
To interpret pKi, take it as minus log10 of a concentration measured in moles per litre.

stdin: Any idea what its pKi is? The molecule is OC[C@H]1O[C@H](O)[C@H](O)[C@@H](O)[C@H]1O [galactose, alpha-D-galactose]
stdout: 2.89

###

- System name: melon (Cucumis melo) fruit acid form alpha-galactosidase
- Test method notes: Inhibition of acid alpha-galactosidase by galactose, pNPG as substrate
- Measurement setup: competitive, Lineweaver-Burk
Assay metric: pKi
// scale note: pKi = -log10(conc_M); give the bare number

stdin: Record request: pKi value, item OC[C@H]1O[C@H](O)[C@H](O)[C@@H](O)[C@H]1O [galactose, alpha-D-galactose]
stdout: 4.22

###

- System: melon (Cucumis melo) fruit acid form alpha-galactosidase
- Test method notes: Substrate kinetics (Lineweaver-Burk) of acid alpha-galactosidase
- Assay type: biochemical, muskmelon (Cucumis melo L. cv C-8)
- Measurement setup: Lineweaver-Burk
Assay metric: Km (µM)

Would you please look over these solved cases?
{"Compound": "O=[N+]([O-])c1ccc(O[C@H]2O[C@H](CO)[C@H](O)[C@H](O)[C@H]2O)cc1 [pNPG, p-nitrophenyl alpha-galactopyranoside]", "System name": "melon (Cucumis melo) fruit acid form alpha-galactosidase", "Assay metric": "Km", "Assay value": 300}
{"Compound": "OC[C@H]1O[C@H](OC[C@H]2OC(O)[C@H](O)[C@@H](O)[C@@H]2O)[C@H](O)[C@@H](O)[C@H]1O (stereo partly shown)", "System name": "melon (Cucumis melo) fruit acid form alpha-galactosidase", "Assay metric": "Km", "Assay value": 700}

1. OC[C@H]1O[C@H](OC[C@H]2O[C@H](O[C@]3(CO)O[C@H](CO)[C@@H](O)[C@@H]3O)[C@H](O)[C@@H](O)[C@@H]2O)[C@H](O)[C@@H](O)[C@H]1O
2. OC[C@H]1O[C@H](OC[C@H]2O[C@H](OC[C@H]3O[C@H](O[C@]4(CO)O[C@H](CO)[C@@H](O)[C@@H]4O)[C@H](O)[C@@H](O)[C@@H]3O)[C@H](O)[C@@H](O)[C@H]2O)[C@H](O)[C@@H](O)[C@H]1O
stdin: Could you kindly indicate whether 1 or 2 has the higher Km value? Pick one and reply with its label.
stdout: 2
(2: 10500 µM, 1: 4200 µM)

###

- System name: UniProt Q84NI7
Assay metric: Ki (mM)
Just the number please, in mM, no unit attached.

stdin: API: value(readout= Ki, system= UniProt Q84NI7, query= OC[C@H]1O[C@H](O)[C@H](O)[C@@H](O)[C@H]1O [galactose, alpha-D-galactose] )
stdout: 13

###

- System name: melon (Cucumis melo) fruit alkaline alpha-galactosidase Form II (Cucumis melo, UniProt Q84NI6)
- Construct: native 102 kDa, denatured 92 kDa; assayed at pH 7.5
- Test method notes: Substrate kinetics (Lineweaver-Burk) of alkaline alpha-galactosidase Form II
- Assay type: biochemical, muskmelon (Cucumis melo L. cv C-8)
- Measurement setup: Lineweaver-Burk
Assay metric: Vmax (μmol mg^−1 protein min^−1)

{"Compound": "OC[C@H]1O[C@H](OC[C@H]2O[C@H](O[C@]3(CO)O[C@H](CO)[C@@H](O)[C@@H]3O)[C@H](O)[C@@H](O)[C@@H]2O)[C@H](O)[C@@H](O)[C@H]1O", "Vmax, μmol mg^−1 protein min^−1": 0.28}
{"Compound": "O=[N+]([O-])c1ccc(O[C@H]2O[C@H](CO)[C@H](O)[C@H](O)[C@H]2O)cc1 [pNPG, p-nitrophenyl alpha-galactopyranoside]", "Vmax, μmol mg^−1 protein min^−1": 7.9}

a. OC[C@H]1O[C@H](OC[C@H]2OC(O)[C@H](O)[C@@H](O)[C@@H]2O)[C@H](O)[C@@H](O)[C@H]1O (stereo partly shown)
b. OC[C@H]1O[C@H](OC[C@H]2O[C@H](OC[C@H]3O[C@H](O[C@]4(CO)O[C@H](CO)[C@@H](O)[C@@H]4O)[C@H](O)[C@@H](O)[C@@H]3O)[C@H](O)[C@@H](O)[C@H]2O)[C@H](O)[C@@H](O)[C@H]1O
stdin: # query: argmin of Vmax over a and b Write down the label attached to your selection.
stdout: a
(a: 0.23 μmol mg^−1 protein min^−1, b: 2.2 μmol mg^−1 protein min^−1)

Recorded values, source patent US7514254B2.
